Target Under Test: T1, TIA1 RRM2_3 (human, UniProt P31483-2 93-274)
T1 sequence: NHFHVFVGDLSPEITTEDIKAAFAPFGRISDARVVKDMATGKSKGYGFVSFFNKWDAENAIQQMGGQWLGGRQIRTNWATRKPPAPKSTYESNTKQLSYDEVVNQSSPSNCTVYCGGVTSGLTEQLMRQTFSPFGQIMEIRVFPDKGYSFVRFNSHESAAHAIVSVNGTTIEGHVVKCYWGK
Method: EMSA; EMSA: 10 mM sodium phosphate pH 6.5, 50 mM NaCl, 1 mM DTT, 1 U/ul SUPERase-In, room temperature 20 min, native 1.2% agarose; RNA annealed in 10 mM Tris-HCl pH 7.5, 100 mM KCl
Measurement Conditions: protein: recombinant; tags: His6-SUMO removed by SUMO protease; label: 5'-Cy3; hairpin
Below, each of the binders is paired with its reported Kd value.

## Input Name the reported Kd value associated with the binder UGGGCUCUAAACGCCCUUUAA (structured_RNA) [SL3-GC]
## Output 5650 nM

## Input Name the reported Kd value associated with the binder UGUUCCCCCCCCGAACUUUAA (structured_RNA) [SL3-HP-C7]
## Output 1950 nM

## Input Name the reported Kd value associated with the binder UGUUCUUUUUUUGAACUUUAA (structured_RNA) [SL3-HP-U7]
## Output 540 nM

## Input Name the reported Kd value associated with the binder UGUUCUCUAAACGAACUUCAA (structured_RNA) [SL3 U78C]
## Output 1340 nM

## Input Name the reported Kd value associated with the binder UGUUCUCUUAACGAACUUUAA (structured_RNA) [SL3 A68U]
## Output 460 nM

Moving on to another binder below.
## Input Name the reported Kd value associated with the binder UGUUCUCUACACGAACUUUAA (structured_RNA) [SL3 A69C]
## Output 420 nM

The reported numbers originate from paper PMC10287707.
